- Measured On: wild-type EGFR expressed on cells (human), P00533
- Assay Procedure: flow cytometry, A431 cells
- Condition: remark: other sources report otherwise
Metric: MFI

Binder	Metric	Endpoint Value
49B11 (antibody, V domains shown) VH: QVTLKESGPVLVKPTETLTLTCTVSGFSLSNVRMGVSWIRQPPGKALEWFAHIFSSDEKSIRRSLRSRLTLSKDTSKSQVVLTMTNMDPVDTATYYCARDSSNYEGYFDYWGQGTLVTVSS VL: EMEVTQSPATLSVSPGERATLSCRASQNIGSDLAWYQQQSGQAPRLLISGASTRATGVPTRFSGSGSGTDFTLTITSLQSEDFAVYYCQQYNDWPFTFGPGTKVDIK	MFI	599
26B9 (antibody, V domains shown) VH: EVQLVESWGVLVKPGGSLRLSCAASGFIFNNAWMSWVRQAPGKGLEWIGRIKSKSDGGTTDYAAPVKDRFTISRDDSKDTLYLQMNGLKTEDTAVYFCTTAPGGPFDYWGQGTLVTVSS VL: DIVLTQSPLSLPVTPGEPASISCRSSQSLLHRDGFNYLDWFLQKPGQSPQLLIYLASSRASGVPDRFSGSDSGTDFTLKISRVEAEDVGVYYCMQALQTPITFGQGTRLEIK	MFI	276
19A9 (antibody, V domains shown) VH: QVTLEESGPVLVKPTETLTLTCTVSGFSLSNARMGVSWIRQPPGKAPEWFAHIFSTDEKSLRLSLRSRLTLSKDTSKSQVVLTMTNMDPVDTATYYCARDSSNYEGYFDYWGQGTLVTVSS VL: EVVMTQSPATLSVSPGERATLSCRASQSVNRNLAWYQQKPGQAPRLLIFGTSTRATGIPARFSGSGSGTEFTLTIDSLQSEHSGLYYCQQYNDWPFTFGPGTKVDIK	MFI	578
42G9 (antibody, V domains shown) VH: QVTLKESGPVLLKPTETLTLTCTVSGFSLSNPRMGVSWIRQPPGKALEWFAHIFSTDEKSLKLSLRSRLTLSKDTSKSQVVLTMTNMAPVDSATYYCARDSSNYEGYFDFWGQGTLVTVSS VL: EVVLTQSPATLSVSPGERATLSCRASQSVRSNLAWYQQKSGQAPRLLIYGSTIRATGVPARFSGSGSGTEFTLTISSLQSEDFAVYYCQQYSDWPFTFGPGTKVDIK	MFI	538
20E12 (antibody, V domains shown) VH: EVNLVESGGGLVKPGGSLRLSCEASGFTFSYAWMSWVRQAPGKGLEWVGRIKSIADGGATDYAAPVRNRFTISRDDSRNTLYLEMHSLKTEDTAVYYCTTIPGNDAFDMWGQGTMVTVSS VL: DIVLTQSPLSLSVTPGEPASISCRSSQSLLYSNGKNYLDWFLHKPGQSPQLLIYLGSNRASGVPDRFSGSGSGIDFILKISRVEAEDVGVYYCMQAQQTPITFGQGTRLEIK	MFI	302
